From: the supplement of paper PMC8728848

Target: Neu5Ac(a2-3)Gal(b1-3)GalNAc(b1-4)[Neu5Ac(a2-8)Neu5Ac(a2-3)]Gal(b1-4)Glc
Test: glycan array binding signal (z-score within array); higher = stronger binding
Settings: glycan notation: IUPAC condensed, linker removed
Only a selection was taken, and the strongest signals are over-represented in it overall.
reported metric: glycan array binding signal (z-score)
The answer should be a number; do not append a unit.

// query glycan array binding signal (z-score) value for entry Pwp1 (Candida glabrata) (protein) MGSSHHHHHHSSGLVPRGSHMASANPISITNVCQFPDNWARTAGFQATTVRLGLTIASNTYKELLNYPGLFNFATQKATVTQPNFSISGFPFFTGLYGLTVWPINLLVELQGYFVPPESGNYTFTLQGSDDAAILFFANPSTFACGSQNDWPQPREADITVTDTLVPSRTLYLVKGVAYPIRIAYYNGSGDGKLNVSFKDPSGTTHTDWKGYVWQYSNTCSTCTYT
0.23

Try the binder ConA (Canavalia ensiformis), P02866 (protein) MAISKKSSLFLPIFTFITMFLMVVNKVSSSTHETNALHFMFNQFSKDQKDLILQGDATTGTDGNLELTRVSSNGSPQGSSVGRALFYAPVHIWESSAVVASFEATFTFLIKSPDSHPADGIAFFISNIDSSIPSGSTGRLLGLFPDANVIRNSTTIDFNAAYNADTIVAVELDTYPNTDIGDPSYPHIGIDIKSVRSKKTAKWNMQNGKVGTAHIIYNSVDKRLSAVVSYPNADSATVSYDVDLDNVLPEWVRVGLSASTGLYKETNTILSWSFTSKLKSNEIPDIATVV
-0.248

Input Epa7 (Candida glabrata), Q6DTM6_CANGB (protein) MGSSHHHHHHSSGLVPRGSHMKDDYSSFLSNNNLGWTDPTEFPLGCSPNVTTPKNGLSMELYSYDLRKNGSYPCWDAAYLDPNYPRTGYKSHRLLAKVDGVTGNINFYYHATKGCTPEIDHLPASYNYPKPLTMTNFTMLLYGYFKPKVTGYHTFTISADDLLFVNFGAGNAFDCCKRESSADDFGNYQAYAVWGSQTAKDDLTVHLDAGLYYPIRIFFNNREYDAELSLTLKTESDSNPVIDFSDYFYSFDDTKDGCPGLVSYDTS
-0.06
